These data points were gathered from patent US20240376100A1.

- assayedTarget: PAPD5 enzyme (Homo sapiens)
- Sequence (Q8NDF8 whole entry): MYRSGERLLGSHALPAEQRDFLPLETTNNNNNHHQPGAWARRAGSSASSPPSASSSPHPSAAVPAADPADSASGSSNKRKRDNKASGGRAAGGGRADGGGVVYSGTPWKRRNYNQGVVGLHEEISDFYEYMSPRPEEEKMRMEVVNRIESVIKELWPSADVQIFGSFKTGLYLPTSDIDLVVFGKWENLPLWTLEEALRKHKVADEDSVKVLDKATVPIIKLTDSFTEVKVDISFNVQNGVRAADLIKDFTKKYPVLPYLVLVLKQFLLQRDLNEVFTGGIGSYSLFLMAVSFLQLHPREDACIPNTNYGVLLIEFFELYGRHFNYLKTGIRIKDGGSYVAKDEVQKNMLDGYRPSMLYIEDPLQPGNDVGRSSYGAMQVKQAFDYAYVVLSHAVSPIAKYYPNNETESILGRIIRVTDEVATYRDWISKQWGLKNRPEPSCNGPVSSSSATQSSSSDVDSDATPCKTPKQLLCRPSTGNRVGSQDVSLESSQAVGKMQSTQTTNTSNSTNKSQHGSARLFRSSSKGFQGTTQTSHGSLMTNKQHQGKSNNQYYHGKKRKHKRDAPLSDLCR
Structures can show the parent of a compound that is named as a salt.
For each record, write down the corresponding IC50.

Here are 3 molecules together with their reported answers.
{"columns": ["molecule", "resultType", "result"],
 "data": [
  ["O=C(O)c1cn(-c2cnccn2)c2nc(N3Cc4cccnc4C3)c(Cl)cc2c1=O", "IC50", "≤ 1 µM"],
  ["O=C(O)c1cn(-c2ccc(O)c(F)c2)c2cc(N3Cc4cccnc4C3)c(Cl)cc2c1=O", "IC50", "≤ 1 µM"],
  ["COc1cc2c(=O)c(C(=O)O)cn(-c3cnc(NC(=O)OC(C)(C)C)cc3C)c2cc1N1Cc2cccnc2C1", "IC50", "≤ 1 µM"]
]}

Provide IC50 values for the following items, in order.
1. Cc1cc(N)ncc1-n1cc(C(=O)O)c(=O)c2ccc(N3Cc4cccnc4C3)c(F)c21 [Example 154, hydrochloride]
2. CN(C)C1CN(c2ccc(-n3cc(C(=O)O)c(=O)c4cc(Cl)c(N5Cc6cccnc6C5)nc43)cn2)C1
3. COCCNc1ccc(-n2cc(C(=O)O)c(=O)c3cc(C#N)c(N4Cc5cccnc5C4)cc32)cn1
4. Cc1cc(NS(C)(=O)=O)ncc1-n1cc(C(=O)O)c(=O)c2cc(Cl)c(N3Cc4cccnc4C3)nc21

RESULT:
≤ 1 µM
≤ 1 µM
≤ 1 µM
≤ 1 µM

###

Counter-ions that a name gives are not always drawn.
In what follows, each item is paired with its IC50 for UniProt:Q8NDF8.

Here are 5 compounds together with their reported answers.
{"columns": ["compound", "IC50"],
 "data": [
  ["O=C(O)c1cn(CC2CCC2)c2cc(N3Cc4cccnc4C3)c(Cl)cc2c1=O", "≤ 1000 nM"],
  ["CN(CCO)c1ccn(-c2cc3c(cc2Cl)c(=O)c(C(=O)O)cn3-c2ccc(N)nc2)n1", "≤ 1000 nM"],
  ["O=C(O)c1cn(-c2ccc(O)cc2F)c2cc(N3Cc4cccnc4C3)c(Cl)cc2c1=O", "≤ 1000 nM"],
  ["Cc1cc(N(C)C)ncc1-n1cc(C(=O)O)c(=O)c2cc(F)c(N3Cc4cccnc4C3)cc21", "≤ 1000 nM"],
  ["Cc1cc(N)ncc1-n1cc(C(=O)O)c(=O)c2cc(Cl)c(N3Cc4cccnc4C3)nc21 [Example 78, TFA salt]", "≤ 1000 nM"]
]}

Provide IC50 values for the following items, in order.
1. O=C(O)c1cn(C2CCNCC2)c2cc(N3Cc4cccnc4C3)c(Cl)cc2c1=O [Example 123, hydrochloride]
2. COCCN(C)c1ccn(-c2cc3c(cc2Cl)c(=O)c(C(=O)O)cn3-c2ccc(N)nc2)n1
3. Cc1cc(N)ncc1-n1cc(C(=O)O)c(=O)c2cc(F)c(N3Cc4cccnc4C3)nc21 [Example 77, TFA salt]

RESULT:
≤ 1000 nM
≤ 1000 nM
≤ 1000 nM

Provide IC50 values for the following items, in order.
1. Cc1cc(N)ncc1-n1cc(C(=O)O)c(=O)c2cc(Cl)c(N3Cc4cncnc4C3)nc21
2. Cc1cc(N2CCC2)ncc1-n1cc(C(=O)O)c(=O)c2cc(Cl)c(N3Cc4cccnc4C3)nc21
3. Cc1cc(N)ncc1-n1cc(C(=O)O)c(=O)c2cc(F)c(N3Cc4cccnc4C3)cc21 [Example 79, TFA salt]

RESULT:
["≤ 1000 nM", "≤ 1000 nM", "≤ 1000 nM"]
